System: MS2 coat protein
assay info: apparent KD of MS2 coat protein; higher = weaker reporter binding
assay setup: Eterna round: R107; input ligand: theophylline 2 mM
# label = Met if apparent KD of MS2 coat protein >= 40 nM else Not met

Observe how each entry below is paired with its result.
seq_string="UUUUCAGGGUCGGCCGCCACUGGUAUGGCGAGUCCUCGAACAAACAUGAGGAUCACCCAUGUGAACAGGACCGGGACAGCAUGGG [Exclusion Tryptophan B GF 21]" label=Met
seq_string="CAGUGAGAGUCGGCCGCCACUUAACGCAAGUAGCGCAACCCAAAACAUGAGGAUCACCCAUGUCGAAGGACCGGGACAAUGAGCG [theeternabot_sameState_MS2_Trp_B_47]" label="Not met"
seq_string="AUAACAUGAGGAUCACCCAUGUAAGCUGAAGGAGCGCUGGAAACAGCAGGUAGGUCGCAGCAUGUUUCCACAUGGGUAGGAAACU [(M1)-(M2)-(Arg1)-(Arg2)-(A)'-(M)'-(A)''_Design8]" label=Met

Query block: Please indicate if the recorded apparent KD of MS2 coat protein for UGUCACUGUUUGGUUCAAUGAAGAAGAAUUCGAGGACCGGUACGGCCGCCACUCGCUAUGCAACAUGAGGAUCACCCAUGUAAAA [theeternabot_exclusion_MS2_Trp_A_31] meets or exceeds 40 nM.
Result block: Not met
